pIC50 values for the compounds below.
target: Tek (Homo sapiens, UniProt Q02763); construct: Kinases are expressed as either kinase domains or full length constructs; made in house; assay: Kinase inhibition assay (33P transfer), Tek; assay type: biochemical; settings: read-out: Tek-1
Sequence (Q02763 23-1124, species assumed): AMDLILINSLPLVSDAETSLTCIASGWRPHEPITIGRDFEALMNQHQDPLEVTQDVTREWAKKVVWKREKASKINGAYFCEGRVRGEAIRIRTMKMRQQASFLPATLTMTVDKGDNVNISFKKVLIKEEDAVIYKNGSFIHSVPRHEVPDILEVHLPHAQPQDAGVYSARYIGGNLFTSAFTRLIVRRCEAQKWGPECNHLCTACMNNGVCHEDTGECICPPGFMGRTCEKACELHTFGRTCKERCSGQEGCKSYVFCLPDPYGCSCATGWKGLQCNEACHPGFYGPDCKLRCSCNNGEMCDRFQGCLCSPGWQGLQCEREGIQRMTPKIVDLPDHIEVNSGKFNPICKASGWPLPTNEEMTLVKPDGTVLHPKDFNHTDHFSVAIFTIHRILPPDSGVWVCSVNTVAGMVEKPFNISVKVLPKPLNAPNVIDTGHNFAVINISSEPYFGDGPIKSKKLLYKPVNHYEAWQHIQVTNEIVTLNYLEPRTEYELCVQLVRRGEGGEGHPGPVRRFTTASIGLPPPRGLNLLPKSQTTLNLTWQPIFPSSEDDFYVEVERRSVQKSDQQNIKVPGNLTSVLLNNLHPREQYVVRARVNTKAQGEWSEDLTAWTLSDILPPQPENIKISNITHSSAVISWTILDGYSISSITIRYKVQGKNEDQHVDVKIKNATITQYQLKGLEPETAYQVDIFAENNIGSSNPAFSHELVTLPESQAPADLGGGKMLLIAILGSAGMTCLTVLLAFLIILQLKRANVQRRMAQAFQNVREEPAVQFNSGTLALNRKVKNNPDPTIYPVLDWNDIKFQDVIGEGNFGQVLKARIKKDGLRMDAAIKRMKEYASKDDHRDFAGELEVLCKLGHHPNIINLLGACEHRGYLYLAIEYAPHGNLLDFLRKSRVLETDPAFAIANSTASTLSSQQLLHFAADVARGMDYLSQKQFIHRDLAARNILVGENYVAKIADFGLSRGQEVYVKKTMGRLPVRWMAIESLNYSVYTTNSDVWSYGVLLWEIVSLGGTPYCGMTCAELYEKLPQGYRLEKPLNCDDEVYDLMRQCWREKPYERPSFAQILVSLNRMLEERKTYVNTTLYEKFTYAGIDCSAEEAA
pIC50: −log10 of the molar value.

Asked: # query: pIC50 of entry COc1cc(Nc2ncnc(-n3ncc4ccccc43)n2)cc(OC)c1OC [Compound 240]
Given back: < 4.92

Asked: Form field: reported pIC50 of COc1ccc(Nc2nc3ccccc3n2-c2ncnc(Nc3cc(OC)c(OC)c(OC)c3)n2)cc1 [Compound 397]
Given back: < 5.05

Asked: What does the data say about its pIC50? Entry: Cc1cccc(Nc2ncnc(Nc3ccc(O)cc3)n2)c1 [Compound 107]
Given back: < 4.81

Asked: Endpoint output: pIC50 of COc1cc(Nc2ncnc(Nc3ccc4c(cnn4Cc4ccccc4)c3)n2)cc(OC)c1OC [Compound 177] . Value?
Given back: 5.30 to 6.08

Asked: Quick one: pIC50 of NC(=O)c1ccc(Nc2ncnc(Nc3cc(-c4ccco4)n[nH]3)n2)cc1 [Compound 341] ?
Given back: < 4.91

Asked: // lookup pIC50 for COc1cc(Nc2ncnc(-n3c(NCC(C)C)nc4ccccc43)n2)cc(OC)c1OC [Compound 407]
Given back: < 5.00

Asked: Could you share which pIC50 value was measured for Oc1cccc(Nc2ncnc(Nc3ccc(OCc4ccccc4)cc3)n2)c1 [Compound 159] ?
Given back: 5.04 to 5.21

Asked: Which pIC50 reading was recorded for the compound CCc1cccc(Nc2ncnc(-n3c(N)nc4ccccc43)n2)c1 [Compound 655] ?
Given back: 4.98 to 5.14

Asked: Entry COc1cc(Nc2ncnc(-n3c(Nc4ccc5cn[nH]c5c4)nc4ccccc43)n2)cc(OC)c1OC [Compound 406] : reported pIC50 = ?
Given back: < 5.05

====

biological target: Kdr (Homo sapiens); construct: Kinases are expressed as either kinase domains or full length constructs; made in house; assay: Kinase inhibition assay (33P transfer), Kdr; assay type: biochemical; conditions: read-out: KDR-1
Sequence (P35968 20-1356, species assumed): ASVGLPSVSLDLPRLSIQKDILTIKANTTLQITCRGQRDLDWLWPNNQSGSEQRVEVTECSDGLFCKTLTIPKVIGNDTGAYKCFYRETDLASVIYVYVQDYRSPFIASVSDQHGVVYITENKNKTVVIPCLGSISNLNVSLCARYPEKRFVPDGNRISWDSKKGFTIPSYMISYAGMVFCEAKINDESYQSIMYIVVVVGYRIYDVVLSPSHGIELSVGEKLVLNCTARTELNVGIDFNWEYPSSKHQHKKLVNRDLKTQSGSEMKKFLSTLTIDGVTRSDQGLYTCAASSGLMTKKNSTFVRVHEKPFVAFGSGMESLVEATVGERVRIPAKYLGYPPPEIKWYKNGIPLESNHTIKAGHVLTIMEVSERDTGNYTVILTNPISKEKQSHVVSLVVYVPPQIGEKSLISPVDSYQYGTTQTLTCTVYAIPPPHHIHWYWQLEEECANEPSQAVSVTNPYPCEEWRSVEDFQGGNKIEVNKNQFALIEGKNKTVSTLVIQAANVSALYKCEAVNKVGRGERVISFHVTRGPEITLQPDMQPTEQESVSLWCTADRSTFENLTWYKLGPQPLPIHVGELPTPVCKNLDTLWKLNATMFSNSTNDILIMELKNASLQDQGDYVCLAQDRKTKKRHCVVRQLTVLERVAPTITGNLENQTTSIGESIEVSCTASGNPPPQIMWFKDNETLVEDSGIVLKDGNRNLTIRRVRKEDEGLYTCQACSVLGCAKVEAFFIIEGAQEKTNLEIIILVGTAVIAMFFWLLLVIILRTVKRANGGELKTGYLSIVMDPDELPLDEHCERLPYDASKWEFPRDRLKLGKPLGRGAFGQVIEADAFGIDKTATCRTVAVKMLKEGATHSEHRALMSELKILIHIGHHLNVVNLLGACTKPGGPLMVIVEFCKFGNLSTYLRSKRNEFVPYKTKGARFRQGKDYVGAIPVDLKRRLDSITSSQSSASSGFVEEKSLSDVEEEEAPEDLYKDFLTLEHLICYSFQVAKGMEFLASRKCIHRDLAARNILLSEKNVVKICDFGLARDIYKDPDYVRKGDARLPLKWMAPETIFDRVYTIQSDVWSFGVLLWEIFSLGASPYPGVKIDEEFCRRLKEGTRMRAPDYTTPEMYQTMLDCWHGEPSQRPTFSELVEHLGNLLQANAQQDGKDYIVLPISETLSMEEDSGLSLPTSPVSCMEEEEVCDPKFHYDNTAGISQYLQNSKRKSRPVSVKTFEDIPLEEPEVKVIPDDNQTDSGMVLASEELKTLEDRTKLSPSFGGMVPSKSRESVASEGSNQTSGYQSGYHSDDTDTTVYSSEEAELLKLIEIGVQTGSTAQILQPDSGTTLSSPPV
pIC50: −log10 of the molar value.
Known pIC50 of a selection of compounds

Use the examples below as a reference point.
| SMILES_RECORD | pIC50 |
| --- | --- |
| O=c1[nH]c2ccccc2n1-c1ncnc(Nc2cccc3cccnc23)n1 | < 4.90 |
| Nc1nc2ccccc2n1-c1ncnc(Nc2cccc(Cl)c2)n1 | 5.15 to 5.93 |

Asked: Kdr (Homo sapiens) / pIC50 / Cc1ccc2c(c1)CCCN2c1ncnc(Nc2cccc(CO)c2)n1 : value?
Given back: 5.16 to 5.94

Asked: Value wanted: pIC50 (Kdr (Homo sapiens)) of entry COc1cc(Nc2ncnc(-c3cccnc3NCc3ccc(F)cc3)n2)cc(OC)c1OC
Given back: > 6.06

====

Biological target: EGFR (Homo sapiens, UniProt P00533)
Construct: Kinases are expressed as either kinase domains or full length constructs; made in house
Sequence (P00533 25-1210, species assumed): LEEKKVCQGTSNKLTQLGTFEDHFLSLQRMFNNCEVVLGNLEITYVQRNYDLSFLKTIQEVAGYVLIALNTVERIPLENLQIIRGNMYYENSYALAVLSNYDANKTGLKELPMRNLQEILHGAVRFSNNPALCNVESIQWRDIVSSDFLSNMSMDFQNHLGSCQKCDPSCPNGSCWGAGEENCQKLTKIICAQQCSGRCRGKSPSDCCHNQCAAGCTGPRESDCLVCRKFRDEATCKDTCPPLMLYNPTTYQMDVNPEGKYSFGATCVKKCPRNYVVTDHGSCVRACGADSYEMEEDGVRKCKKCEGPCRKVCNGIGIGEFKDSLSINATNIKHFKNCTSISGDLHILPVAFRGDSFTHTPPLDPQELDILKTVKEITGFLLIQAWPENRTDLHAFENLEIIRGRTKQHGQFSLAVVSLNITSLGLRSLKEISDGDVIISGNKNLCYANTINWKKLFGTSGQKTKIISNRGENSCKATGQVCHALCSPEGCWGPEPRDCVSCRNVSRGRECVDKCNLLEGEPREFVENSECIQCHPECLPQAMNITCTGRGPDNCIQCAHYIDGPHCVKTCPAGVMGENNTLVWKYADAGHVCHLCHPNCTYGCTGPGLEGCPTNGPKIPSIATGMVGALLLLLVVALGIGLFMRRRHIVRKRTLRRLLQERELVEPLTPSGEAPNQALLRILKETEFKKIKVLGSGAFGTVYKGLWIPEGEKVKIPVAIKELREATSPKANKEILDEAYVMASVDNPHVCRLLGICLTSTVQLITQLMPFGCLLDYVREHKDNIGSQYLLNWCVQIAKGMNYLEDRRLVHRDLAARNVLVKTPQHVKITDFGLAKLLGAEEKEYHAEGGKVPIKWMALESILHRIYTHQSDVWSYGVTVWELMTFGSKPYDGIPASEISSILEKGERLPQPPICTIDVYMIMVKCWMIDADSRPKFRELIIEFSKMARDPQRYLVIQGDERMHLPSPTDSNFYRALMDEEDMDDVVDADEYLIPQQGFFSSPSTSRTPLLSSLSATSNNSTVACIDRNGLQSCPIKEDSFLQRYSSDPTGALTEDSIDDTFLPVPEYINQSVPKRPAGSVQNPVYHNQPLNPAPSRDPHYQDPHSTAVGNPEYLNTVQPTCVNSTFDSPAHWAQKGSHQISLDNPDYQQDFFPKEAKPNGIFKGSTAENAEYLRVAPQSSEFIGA
Experiment: Kinase inhibition assay (33P transfer), EGFR
Assay type: biochemical
Settings: Table 2, class symbols A-E; read-out: EGFR-1
Procedure: The inhibitor compounds described herein are screened in the following manner. […] Kinases are expressed as either kinase domains or full length constructs fused to glutathione S-transferase (GST) or polyHistidine tagged fusion proteins in either E. colior Baculovirus-High Five expression systems. […] Kinase activity and inhibition are measured essentially by established protocols (Braunwalder et al., 1996). […]
MEASUREMENT_KIND: IC50

Consider the following illustrative entries.
| SMILES_RECORD | IC50 |
| --- | --- |
| CN(c1ccc2c(cnn2Cc2ccccc2)c1)c1ncnc(Nc2cccc(Cc3nnn[nH]3)c2)n1 | < 0.817 µM |
| CCN(c1cccc(Cl)c1)c1ncnc(Nc2cc(OC)cc(OC)c2)n1 | < 1.04 µM |

Kindly consider the entry below.
Asked: Query for EGFR (Homo sapiens, UniProt P00533): what IC50 does the record show for CN(c1ccc2c(cnn2Cc2ccccc2)c1)c1ncnc(Nc2cccc(Cn3ccnn3)c2)n1 ?
Given back: < 0.819 µM
